system: COLO-668 (Small Cell Lung Carcinoma); test: Bliss excess, mean over the matrix (fraction); higher = more synergy;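 further: after 72 h of two-drug dosing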
Record form. Attribute: Bliss excess. Fill in for each entry.
Answers are plain numbers.

Examples with their reported Bliss excess follow.
molecule	Bliss excess
NC1(C(=O)N[C@@H](CCO)c2ccc(Cl)cc2)CCN(c2ncnc3[nH]ccc23)CC1 [Capivasertib] + C[C@@H]1COCCN1C2=NC(=NC(=C2)C3(CC3)[S@](=N)(=O)C)C4=C5C=CNC5=NC=C4 [AZD6738] (first compound max 10 µM, 7x7, partner max 10 µM)	-0.0501
COc1nnc2ccc(N3CCC(c4ccc(OCCN5CCN(C)C(=O)[C@H]5C)cc4)CC3)nn12 [AZD5153] + C=CCn1c(=O)c2cnc(Nc3ccc(N4CCN(C)CC4)cc3)nc2n1-c1cccc(C(C)(C)O)n1 [AZD1775] (first compound max 1 µM, partner max 1 µM)	-0.0349
CC1(C)CCC(CN2CCN(c3ccc(C(=O)NS(=O)(=O)c4ccc(NCC5CCOCC5)c([N+](=O)[O-])c4)c(Oc4cnc5[nH]ccc5c4)c3)CC2)=C(c2ccc(Cl)cc2)C1 [Venetoclax] + Cc1cc2ncnn2cc1Nc1ncc2c(n1)n(C1CCOCC1)c(=O)n2C [AZD7648] (first compound max 1 µM, 7x7, partner max 10 µM)	0.0355
COc1cccc2c1C(=O)c1c(O)c3c(c(O)c1C2=O)C[C@@](O)(C(=O)CO)C[C@@H]3O[C@H]1C[C@H](N)[C@H](O)[C@H](C)O1 [Doxorubicin] + Cc1cc2ncnn2cc1Nc1ncc2c(n1)n(C1CCOCC1)c(=O)n2C [AZD7648] (first compound max 1 µM, 7x7, partner max 10 µM)	0.0633
Cn1cnc2c(F)c(Nc3ccc(Br)cc3Cl)c(C(=O)NOCCO)cc21 [Selumetinib] + CC(C)n1c(=O)n(C)c2cnc3cc(F)c(-c4ccc(OCCCN5CCCCC5)nc4)cc3c21 [AZD1390] (first compound max 10 µM, 7x7, partner max 0.3 µM)	0.0314
CN(CCO)CC[C@H](CSc1ccccc1)Nc1ccc(S(=O)(=O)NC(=O)c2ccc(N3CCC([C@@H](O)c4ccccc4-c4ccc(Cl)cc4)CC3)cc2)cc1S(=O)(=O)C(F)(F)F [AZD4320] + CCN(CCO)CCCOc1ccc2c(Nc3cc(CC(=O)Nc4cccc(F)c4)[nH]n3)ncnc2c1 [AZD2811] (first compound max 1 µM, 7x7, partner max 1 µM)	0.0302
COc1nnc2ccc(N3CCC(c4ccc(OCCN5CCN(C)C(=O)[C@H]5C)cc4)CC3)nn12 [AZD5153] + Cc1c2c(nn1C)CSCc1cc(n(C)n1)CSc1cc(c3ccccc3c1)OCCCc1c(C(=O)O)n(C)c3c-2c(Cl)ccc13 [AZD5991] (first compound max 1 µM, 7x7, partner max 1 µM)	0.0265
NC1(C(=O)N[C@@H](CCO)c2ccc(Cl)cc2)CCN(c2ncnc3[nH]ccc23)CC1 [Capivasertib] + CCN(CCO)CCCOc1ccc2c(Nc3cc(CC(=O)Nc4cccc(F)c4)[nH]n3)ncnc2c1 [AZD2811] (first compound max 10 µM, 7x7, partner max 1 µM)	0.0318

// each listed molecule needs a value for Bliss excess
1. CN(C)CCCOc1ccc(-c2ccc3ncc4c(c3c2)n(C2CCOCC2)c(=O)n4C)cn1 [AZD0156] + O=C(c1cc(Cc2n[nH]c(=O)c3ccccc23)ccc1F)N1CCN(C(=O)C2CC2)CC1 [Olaparib] (first compound max 3 µM, partner max 3 µM)
2. N#Cc1cnc(Nc2cc(NC[C@H]3CNCCO3)c(C(F)(F)F)cn2)cn1 [SRA737] + C=CCn1c(=O)c2cnc(Nc3ccc(N4CCN(C)CC4)cc3)nc2n1-c1cccc(C(C)(C)O)n1 [AZD1775] (first compound max 10 µM, partner max 1 µM)
3. C=CCn1c(=O)c2cnc(Nc3ccc(N4CCN(C)CC4)cc3)nc2n1-c1cccc(C(C)(C)O)n1 [AZD1775] + C[C@@H]1COCCN1C2=NC(=NC(=C2)C3(CC3)[S@](=N)(=O)C)C4=C5C=CNC5=NC=C4 [AZD6738] (first compound max 1 µM, partner max 10 µM)
4. NC1(C(=O)N[C@@H](CCO)c2ccc(Cl)cc2)CCN(c2ncnc3[nH]ccc23)CC1 [Capivasertib] + Cn1cnc2c(F)c(Nc3ccc(Br)cc3Cl)c(C(=O)NOCCO)cc21 [Selumetinib] (first compound max 10 µM, 7x7, partner max 10 µM)
5. C=CCn1c(=O)c2cnc(Nc3ccc(N4CCN(C)CC4)cc3)nc2n1-c1cccc(C(C)(C)O)n1 [AZD1775] + O=C(c1cc(Cc2n[nH]c(=O)c3ccccc23)ccc1F)N1CCN(C(=O)C2CC2)CC1 [Olaparib] (first compound max 1 µM, partner max 10 µM)
6. N#Cc1cnc(Nc2cc(NC[C@H]3CNCCO3)c(C(F)(F)F)cn2)cn1 [SRA737] + Nc1ccn([C@@H]2O[C@H](CO)[C@@H](O)C2(F)F)c(=O)n1 [Gemcitabine] (first compound max 10 µM, 7x7, partner max 0.3 µM)

-0.0077
0.151
0.0917
-0.0088
0.0104
-0.0355

###

tested on: ML-2 (Acute Myeloid Leukemia); assay: Bliss excess, mean over the matrix (fraction); higher = more synergy
assay endpoint: Bliss excess

molecule	Bliss excess
Cc1nc(Nc2ncc(C(=O)Nc3c(C)cccc3Cl)s2)cc(N2CCN(CCO)CC2)n1 [Dasatinib] + CC(=O)Nc1cccc(-n2c(=O)n(C3CC3)c(=O)c3c(Nc4ccc(I)cc4F)n(C)c(=O)c(C)c32)c1 [Trametinib] (first compound max 2 µM, 7x7, partner max 1 µM)	-0.122
CN(CCO)CC[C@H](CSc1ccccc1)Nc1ccc(S(=O)(=O)NC(=O)c2ccc(N3CCC([C@@H](O)c4ccccc4-c4ccc(Cl)cc4)CC3)cc2)cc1S(=O)(=O)C(F)(F)F [AZD4320] + C[C@@H]1COCCN1C2=NC(=NC(=C2)C3(CC3)[S@](=N)(=O)C)C4=C5C=CNC5=NC=C4 [AZD6738] (first compound max 1 µM, 7x7, partner max 10 µM)	0.0597
C[C@@H]1COCCN1c1cc(C2([S@](C)(=N)=O)CC2)nc(-c2ccnc3[nH]ccc23)n1 [AZD6738] + C1CC(C1)(C(=O)[O-])C(=O)[O-].N.N.[Pt+2] [Carboplatin] (first compound max 10 µM, 7x7, partner max 10 µM)	-0.0111

Next item in the queue.
Lookup: Bliss excess / ML-2 (Acute Myeloid Leukemia) / Cn1cnc2c(F)c(Nc3ccc(Br)cc3Cl)c(C(=O)NOCCO)cc21 [Selumetinib] + C[C@@H]1COCCN1C2=NC(=NC(=C2)C3(CC3)[S@](=N)(=O)C)C4=C5C=CNC5=NC=C4 [AZD6738] (first compound max 10 µM, 7x7, partner max 10 µM)
-0.0373

###

tested on: COLO-679 (Melanoma); assay: Bliss excess, mean over the matrix (fraction); higher = more synergy
assay endpoint: Bliss excess
Give bare numbers.

molecule	Bliss excess
C=CCn1c(=O)c2cnc(Nc3ccc(N4CCN(C)CC4)cc3)nc2n1-c1cccc(C(C)(C)O)n1 [AZD1775] + CCc1c2c(nc3ccc(O)cc13)-c1cc3c(c(=O)n1C2)COC(=O)[C@]3(O)CC [SN-38] (first compound max 1 µM, partner max 0.3 µM)	-0.171
NC1(C(=O)N[C@@H](CCO)c2ccc(Cl)cc2)CCN(c2ncnc3[nH]ccc23)CC1 [Capivasertib] + COc1nnc2ccc(N3CCC(c4ccc(OCCN5CCN(C)C(=O)[C@H]5C)cc4)CC3)nn12 [AZD5153] (first compound max 10 µM, 7x7, partner max 1 µM)	-0.122
Cc1c2c(nn1C)CSCc1cc(n(C)n1)CSc1cc(c3ccccc3c1)OCCCc1c(C(=O)O)n(C)c3c-2c(Cl)ccc13 [AZD5991] + Cc1cc2ncnn2cc1Nc1ncc2c(n1)n(C1CCOCC1)c(=O)n2C [AZD7648] (first compound max 1 µM, 7x7, partner max 10 µM)	0.0019

Next item in the queue.
Lookup: Bliss excess / COLO-679 (Melanoma) / C[C@@H](Nc1cc(F)cc(F)c1)c1cc(C(=O)N(C)C)cc2c(=O)cc(N3CCOCC3)oc12 [AZD8186] + CC(=O)c1c(C)c2cnc(Nc3ccc(N4CCNCC4)cn3)nc2n(C2CCCC2)c1=O [Palbociclib] (first compound max 10 µM, 7x7, partner max 10 µM)
-0.0735

###

test system: EW-1 (Ewing's Sarcoma); assay: Bliss excess, mean over the matrix (fraction); higher = more synergy
assay endpoint: Bliss excess

Examples with their reported Bliss excess follow.
molecule	target or system	Bliss excess
NC1(C(=O)N[C@@H](CCO)c2ccc(Cl)cc2)CCN(c2ncnc3[nH]ccc23)CC1 [Capivasertib] + CC(C)n1c(=O)n(C)c2cnc3cc(F)c(-c4ccc(OCCCN5CCCCC5)nc4)cc3c21 [AZD1390] (first compound max 10 µM, 7x7, partner max 0.3 µM)	EW-1 (Ewing's Sarcoma)	-0.0622
C=CCn1c(=O)c2cnc(Nc3ccc(N4CCN(C)CC4)cc3)nc2n1-c1cccc(C(C)(C)O)n1 [AZD1775] + C[C@@H]1COCCN1C2=NC(=NC(=C2)C3(CC3)[S@](=N)(=O)C)C4=C5C=CNC5=NC=C4 [AZD6738] (first compound max 1 µM, partner max 10 µM)	EW-1 (Ewing's Sarcoma)	0.0194

// each listed molecule needs a value for Bliss excess
1. COc1nnc2ccc(N3CCC(c4ccc(OCCN5CCN(C)C(=O)[C@H]5C)cc4)CC3)nn12 [AZD5153] + Cn1cnc2c(F)c(Nc3ccc(Br)cc3Cl)c(C(=O)NOCCO)cc21 [Selumetinib] (first compound max 1 µM, 7x7, partner max 10 µM)
2. NC1(C(=O)N[C@@H](CCO)c2ccc(Cl)cc2)CCN(c2ncnc3[nH]ccc23)CC1 [Capivasertib] + C[C@@H]1COCCN1C2=NC(=NC(=C2)C3(CC3)[S@](=N)(=O)C)C4=C5C=CNC5=NC=C4 [AZD6738] (first compound max 10 µM, 7x7, partner max 10 µM)

1: 0.041; 2: 0.0229
